Reference source for all entries: patent US4537777A

# System: Escherichia coli
# TEST METHOD NOTES: standard disc-plate assay
# Type: cell-based
# TEST SETTINGS: read-out: Zone Diameters, in minimal medium, conc 0.1 mg/ml, disc 6.35 mm
READOUT LABEL: zone of inhibition at 100 µg/mL
Kindly report the value followed by its unit.

Some entries whose results are on file:
[[record]]
compound = "[C-]#[N+]C(=CC1=C[C@@H](O)[C@@H](O)CC1)C(=CC1CCC(OC(=O)C=C(C)C)CC1)[N+]#[C-] (relative stereo)"
test_value = "16 mm"

[[record]]
compound = "[C-]#[N+]C(=CC1CCC(OC(=O)CC(C)C)CC1)C(=CC1(OC(C)=O)C=CC(O)CC1)[N+]#[C-] (centres unmarked)"
test_value = "11 mm"

[[record]]
compound = "[C-]#[N+]C(=CC1=C[C@@H](OC)[C@@H](O)CC1)C(=CC1CCC(OC(=O)C=C(C)C)CC1)[N+]#[C-] (relative stereo)"
test_value = "13 mm"

[[record]]
compound = "[C-]#[N+]C(=CC1=C[C@@H](O)[C@H](O)CC1)C(=CC1CCC(O)CC1)[N+]#[C-] (relative stereo)"
test_value = "20 mm"


From here, focus on the item given below.
Exam item: What value of measured zone of inhibition at 100 µg/mL is listed for [C-]#[N+]C(=CC1=C[C@@H](O)[C@H](O)CC1)C(=CC1CCC(OC(=O)C=C(C)C)CC1)[N+]#[C-] (relative stereo) ?
Marked response: 20 mm
